Data provenance is ChEMBL document CHEMBL3988442.

measurement_target: Arginase-2, mitochondrial (Homo sapiens) (UniProt P78540)
Sequence (P78540 whole entry): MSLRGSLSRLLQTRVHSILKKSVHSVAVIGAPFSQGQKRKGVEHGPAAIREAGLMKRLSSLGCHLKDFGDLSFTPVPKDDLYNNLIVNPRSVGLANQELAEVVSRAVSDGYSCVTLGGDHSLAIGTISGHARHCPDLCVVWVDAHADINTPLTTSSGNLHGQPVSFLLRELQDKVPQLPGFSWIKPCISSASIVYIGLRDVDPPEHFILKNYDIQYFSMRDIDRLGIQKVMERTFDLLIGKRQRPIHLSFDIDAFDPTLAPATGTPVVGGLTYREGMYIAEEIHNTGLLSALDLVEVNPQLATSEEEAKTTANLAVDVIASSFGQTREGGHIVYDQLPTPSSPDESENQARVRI
test_protocol: in vitro enzyme assay to detect the production of urea directly proportional to the activity of Arginase II
Type: functional
Set-up: scale not given: in the data most compounds retested in dose-response had high values
condition_context: 33.3 µM
Consider the following molecules; for each one, report its Percent Effect.
Answer with the number, then the unit.

**Q:** Provide Percent Effect, recorded with Arginase-2, mitochondrial (Homo sapiens) (UniProt P78540), of O=C(CN1CCOC(Cn2cccn2)C1)Nc1nncs1 (stereo unspecified)
**A:** -4%

**Q:** Provide Percent Effect, recorded with Arginase-2, mitochondrial (Homo sapiens) (UniProt P78540), of CC(C(=O)NCc1ccnc(N2CCCC2)c1)n1cncn1 (stereo unspecified)
**A:** 3.45%

**Q:** Provide Percent Effect, recorded with Arginase-2, mitochondrial (Homo sapiens) (UniProt P78540), of CCCS(=O)(=O)N1CCC2(CC1)CN(c1ccccn1)CCO2
**A:** -11.8%

# per-item lookup of Percent Effect; items listed below
1. Cc1ccc(N2CCCN(C(=O)C3(C#N)CCCCC3)CC2)nn1
2. Cc1cn2c(n1)CCC(NC(=O)CCn1cncn1)C2 (stereo unspecified)
3. CCN(C(=O)COC)C(c1cccnc1)c1cc(C)cc(C)c1 (stereo unspecified)

**A:**
1. 1.53%
2. -2.88%
3. 1.6%
